Each record here notes measured HC50.
# protocol.text: Hemolytic activity in human RBC
# Assay type: toxicity, cell-based, Erythrocyte
# experimental.context: red blood cells
Peptide text beside a SMILES is read from it.
observation.type: HC50 (µM)

{"molecule": "CC[C@H](C)[C@H](NC(=O)[C@H](CCCNC(=N)N)NC(=O)[C@H](CCCCN)NC(=O)[C@H](CC(C)C)NC(=O)[C@H](CC(C)C)NC(=O)CN)C(=O)N[C@@H](CCCCN)C(=O)N[C@@H](C)C(=O)N[C@@H](CC(C)C)C(=O)N[C@@H](CC(C)C)C(N)=O (H-GLLKRIKALL-NH2)", "observation.type": "HC50", "value.unit": "µM", "measured.value": 86.5}
{"molecule": "CC[C@H](C)[C@H](NC(=O)[C@H](C)NC(=O)[C@H](CCCCN)NC(=O)[C@H](CC(C)C)NC(=O)[C@H](CC(C)C)NC(=O)CN)C(=O)N[C@@H](CCCCN)C(=O)N[C@H](C(=O)N[C@@H](CC(C)C)C(=O)N[C@@H](CC(C)C)C(N)=O)[C@@H](C)O (H-GLLKAIKTLL-NH2)", "observation.type": "HC50", "value.unit": "µM", "measured.value": 151}

* * *

# Test system: Staphylococcus aureus
# protocol.text: Antibacterial activity against Staphylococcus aureus ATCC 25923 assessed as reduction in bacterial growth incubated for 18 hrs by Mueller-Hinton Broth based microdilution assay
# Type: functional
Square brackets hold non-standard residues; d marks the D form. Peptide text beside a SMILES is read from it. NMeR = CN[C@@H](CCCNC(=N)N)C(=O)O; NMeL = CN[C@@H](CC(C)C)C(=O)O

{"compound": "CC[C@H](C)[C@H](NC(=O)[C@H](CCCNC(=N)N)N(C)C(=O)[C@H](CCCCN)NC(=O)[C@H](CC(C)C)NC(=O)[C@H](CC(C)C)NC(=O)CN)C(=O)N[C@@H](CCCCN)C(=O)N[C@H](C(=O)N[C@@H](CC(C)C)C(=O)N[C@@H](CC(C)C)C(N)=O)[C@@H](C)O (H-GLLK[NMeR]IKTLL-NH2)", "MIC": "> 128 µM"}
{"compound": "CC[C@H](C)[C@H](NC(=O)[C@H](CCCNC(=N)N)NC(=O)[C@H](CCCCN)NC(=O)[C@H](CC(C)C)NC(=O)[C@H](CC(C)C)NC(=O)CN)C(=O)N[C@@H](CCCCN)C(=O)N[C@H](C(=O)N[C@@H](CC(C)C)C(=O)N(C)[C@@H](CC(C)C)C(N)=O)[C@@H](C)O (H-GLLKRIKTL[NMeL]-NH2)", "MIC": "> 128 µM"}

* * *

# System: Erythrocyte
# protocol.text: Hemolytic activity in human erythrocyte incubated for 70 mins by absorbance based assay
# Assay type: toxicity, cell-based
# experimental.context: 1.167 h
Peptide text beside a SMILES is read from it. * marks the point of attachment. Lauroyl = CCCCCCCCCCCC(=O)*; Decanoyl = CCCCCCCCCC(=O)*; Octanoyl = CCCCCCCC(=O)*; Hexanoyl = CCCCCC(=O)*; Butyryl = CCCC(=O)*
Each record here notes measured HC10.

{"compound": "CCCCCCCCCC(=O)NCC(=O)N[C@@H](CC(C)C)C(=O)N[C@@H](CC(C)C)C(=O)N[C@@H](CCCCN)C(=O)N[C@@H](CCCNC(=N)N)C(=O)N[C@H](C(=O)N[C@@H](CCCCN)C(=O)N[C@H](C(=O)N[C@@H](CC(C)C)C(=O)N[C@@H](CC(C)C)C(N)=O)[C@@H](C)O)[C@@H](C)CC (Decanoyl-GLLKRIKTLL-NH2)", "relation.qualifier": "=", "HC10 / µM": 16.36}
{"compound": "CCCCCCCC(=O)NCC(=O)N[C@@H](CC(C)C)C(=O)N[C@@H](CC(C)C)C(=O)N[C@@H](CCCCN)C(=O)N[C@@H](CCCNC(=N)N)C(=O)N[C@H](C(=O)N[C@@H](CCCCN)C(=O)N[C@H](C(=O)N[C@@H](CC(C)C)C(=O)N[C@@H](CC(C)C)C(N)=O)[C@@H](C)O)[C@@H](C)CC (Octanoyl-GLLKRIKTLL-NH2)", "relation.qualifier": "=", "HC10 / µM": 210.63}
{"compound": "CCCC(=O)NCC(=O)N[C@@H](CC(C)C)C(=O)N[C@@H](CC(C)C)C(=O)N[C@@H](CCCCN)C(=O)N[C@@H](CCCNC(=N)N)C(=O)N[C@H](C(=O)N[C@@H](CCCCN)C(=O)N[C@H](C(=O)N[C@@H](CC(C)C)C(=O)N[C@@H](CC(C)C)C(N)=O)[C@@H](C)O)[C@@H](C)CC (Butyryl-GLLKRIKTLL-NH2)", "relation.qualifier": ">", "HC10 / µM": 256}
{"compound": "CCCCCC(=O)NCC(=O)N[C@@H](CC(C)C)C(=O)N[C@@H](CC(C)C)C(=O)N[C@@H](CCCCN)C(=O)N[C@@H](CCCNC(=N)N)C(=O)N[C@H](C(=O)N[C@@H](CCCCN)C(=O)N[C@H](C(=O)N[C@@H](CC(C)C)C(=O)N[C@@H](CC(C)C)C(N)=O)[C@@H](C)O)[C@@H](C)CC (Hexanoyl-GLLKRIKTLL-NH2)", "relation.qualifier": ">", "HC10 / µM": 256}
{"compound": "CCCCCCCCCCCC(=O)NCC(=O)N[C@@H](CC(C)C)C(=O)N[C@@H](CC(C)C)C(=O)N[C@@H](CCCCN)C(=O)N[C@@H](CCCNC(=N)N)C(=O)N[C@H](C(=O)N[C@@H](CCCCN)C(=O)N[C@H](C(=O)N[C@@H](CC(C)C)C(=O)N[C@@H](CC(C)C)C(N)=O)[C@@H](C)O)[C@@H](C)CC (Lauroyl-GLLKRIKTLL-NH2)", "relation.qualifier": "=", "HC10 / µM": 11.38}

* * *

# protocol.text: Hemolytic activity against human Red blood cells assessed as cell lysis
# Format: toxicity, cell-based, Erythrocyte
Peptide text beside a SMILES is read from it.
Each record here notes measured HC50.

{"molecule": "CC[C@H](C)[C@H](NC(=O)[C@H](CCCNC(=N)N)NC(=O)[C@H](CCCCN)NC(=O)[C@H](CCCCN)NC(=O)[C@H](CC(C)C)NC(=O)CN)C(=O)N[C@@H](CCCCN)C(=O)N[C@@H](CCCCN)C(=O)N[C@@H](CC(C)C)C(=O)N[C@@H](CC(C)C)C(N)=O (H-GLKKRIKKLL-NH2)", "HC50": "> 174 µM"}
{"molecule": "CC[C@H](C)[C@H](NC(=O)[C@H](Cc1ccccc1)NC(=O)[C@H](CCCCN)NC(=O)[C@H](CC(C)C)NC(=O)[C@H](CC(C)C)NC(=O)[C@@H](N)CCCCN)C(=O)N[C@@H](CCCCN)C(=O)N[C@@H](CCCCN)C(=O)N[C@@H](CC(C)C)C(=O)N[C@@H](CC(C)C)C(N)=O (H-KLLKFIKKLL-NH2)", "HC50": "> 403 µM"}
{"molecule": "CC[C@H](C)[C@H](NC(=O)[C@H](Cc1ccccc1)NC(=O)[C@H](CCCCN)NC(=O)[C@H](CC(C)C)NC(=O)[C@H](CC(C)C)NC(=O)[C@@H](N)CCCNC(=N)N)C(=O)N[C@@H](CCCCN)C(=O)N[C@@H](CCCCN)C(=O)N[C@@H](CC(C)C)C(=O)N[C@@H](CC(C)C)C(N)=O (H-RLLKFIKKLL-NH2)", "HC50": "> 394 µM"}

* * *

# protocol.text: Hemolytic activity in human RBC assessed as hemolysis measured after 24 hrs
# Type: toxicity, cell-based, Erythrocyte
# experimental.context: red blood cells
Square brackets hold non-standard residues; d marks the D form. Peptide text beside a SMILES is read from it. 2Nal = N[C@@H](Cc1ccc2ccccc2c1)C(=O)O; hIle = CC[C@H](C)C[C@H](N)C(=O)O
Each record here notes measured HC50 at 24 h.

{"compound": "CC[C@H](C)C[C@H](NC(=O)[C@H](CCCNC(=N)N)NC(=O)[C@H](CCCCN)NC(=O)[C@H](CC(C)C)NC(=O)[C@H](CC(C)C)NC(=O)CN)C(=O)N[C@@H](CCCCN)C(=O)N[C@H](C(=O)N[C@@H](CC(C)C)C(=O)N[C@@H](Cc1ccc2ccccc2c1)C(N)=O)[C@@H](C)O (H-GLLKR[hIle]KTL[2Nal]-NH2)", "value.unit": "µM", "relation.qualifier": "=", "HC50 at 24 h": 18}
{"compound": "CC[C@H](C)[C@H](NC(=O)[C@H](Cc1ccccc1)NC(=O)[C@H](CCCCN)NC(=O)[C@H](CC(C)C)NC(=O)[C@H](CC(C)C)NC(=O)CN)C(=O)N[C@@H](CCCCN)C(=O)N[C@@H](Cc1c[nH]c2ccccc12)C(=O)N[C@@H](CC(C)C)C(=O)N[C@@H](CC(C)C)C(N)=O (H-GLLKFIKWLL-NH2)", "value.unit": "µM", "relation.qualifier": "=", "HC50 at 24 h": 0.6}
{"compound": "CC[C@H](C)C[C@H](NC(=O)[C@H](CCCNC(=N)N)NC(=O)[C@H](CCCCN)NC(=O)[C@H](CC(C)C)NC(=O)[C@H](CC(C)C)NC(=O)CN)C(=O)N[C@@H](CCCCN)C(=O)N[C@H](C(=O)N[C@@H](Cc1ccc2ccccc2c1)C(=O)N[C@@H](CC(C)C)C(N)=O)[C@@H](C)O (H-GLLKR[hIle]KT[2Nal]L-NH2)", "value.unit": "µM", "relation.qualifier": "=", "HC50 at 24 h": 149}
{"compound": "CC[C@H](C)[C@H](NC(=O)[C@H](CCCNC(=N)N)NC(=O)[C@H](CCCCN)NC(=O)[C@H](Cc1ccc2ccccc2c1)NC(=O)[C@H](CC(C)C)NC(=O)CN)C(=O)N[C@@H](CCCCN)C(=O)N[C@H](C(=O)N[C@@H](CC(C)C)C(=O)N[C@@H](CC(C)C)C(N)=O)[C@@H](C)O (H-GL[2Nal]KRIKTLL-NH2)", "value.unit": "µM", "relation.qualifier": "=", "HC50 at 24 h": 172}
{"compound": "CC(C)C[C@H](NC(=O)[C@H](CC(C)C)NC(=O)[C@@H](NC(=O)[C@H](CCCCN)NC(=O)[C@H](Cc1ccc2ccccc2c1)NC(=O)[C@H](CCCNC(=N)N)NC(=O)[C@H](CCCCN)NC(=O)[C@H](CC(C)C)NC(=O)[C@H](CC(C)C)NC(=O)CN)[C@@H](C)O)C(N)=O (H-GLLKR[2Nal]KTLL-NH2)", "value.unit": "µM", "relation.qualifier": ">", "HC50 at 24 h": 500}
{"compound": "CC[C@H](C)[C@H](NC(=O)[C@H](CCCCN)NC(=O)[C@H](CCCCN)NC(=O)[C@H](CC(C)C)NC(=O)[C@H](CC(C)C)NC(=O)CN)C(=O)N[C@@H](CCCCN)C(=O)N[C@@H](CCCCN)C(=O)N[C@@H](CC(C)C)C(=O)N[C@@H](CC(C)C)C(N)=O", "value.unit": "µM", "relation.qualifier": ">", "HC50 at 24 h": 500}
{"compound": "CC[C@H](C)[C@H](NC(=O)[C@H](Cc1ccccc1)NC(=O)[C@H](CCCCN)NC(=O)[C@H](CC(C)C)NC(=O)[C@H](CC(C)C)NC(=O)CN)C(=O)N[C@@H](CCCCN)C(=O)N[C@@H](CCCCN)C(=O)N[C@@H](CC(C)C)C(=O)N[C@@H](CC(C)C)C(N)=O (H-GLLKFIKKLL-NH2)", "value.unit": "µM", "relation.qualifier": "=", "HC50 at 24 h": 13.6}

Cited source for all entries: ChEMBL document CHEMBL5608163
